Assay: chemical genetic growth profiling, strain panel (AID 1159580);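 also: tested at 20 µM; growth read once vehicle control cultures reached saturation at 30 °C; 1 = growth at the plate median or of vehicle wells; lower values mean less growth of the strain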
Conditions: S. cerevisiae deletion strains, growth OD, locus YLR371W, strain rom2, active compounds read low
In all, about 5,500 compounds went through this assay and about 2,000 (36%) were called active. Another 18% or so got no clear call; they are omitted. Some of the results follow.
Quick reference for normalized growth among some compounds
// keep it numeric: no unit symbol after the value

Use the examples below as a reference point.
INSERT INTO measurements (compound, measurement_kind, result_number) VALUES
  ('CC[C@@H]1[C@@H](O)N2C3C[C@H]1C1C(O)[C@]4(C[C@@H]12)c1ccccc1N(C)[C@@H]34 (some centres not stated)', 'normalized growth', 0.975),
  ('NCCCCN=C(N)N', 'normalized growth', 0.972),
  ('COc1cc(C(=O)O)cc(OC)c1O', 'normalized growth', 0.965);

// lookup normalized growth for O=C(O)CCCCC1SCC2NC(=O)NC21 (configuration not stated)
1.02

// lookup normalized growth for "COP(=S)(OC)Oc1ccc(SC)c(C)c1"
0.989

For the compound "O=C1N=C(O)CN1/N=C\c1ccc(-c2ccc([N+](=O)[O-])cc2)o1" , what normalized growth is on record?
1.02

Entry under review: CC1(C)C2CC(=O)O[C@@]3(C)C4=CC(=O)O[C@@H](c5ccoc5)[C@]4(C)CCC3[C@@]2(C)C=C[C@H]1O (some centres not stated) . Reported normalized growth?
0.992
